- STUDY_SYSTEM: SCD5 (Homo sapiens)
- Construct: host or cells: S. cerevisiae ole1Δ strain (W303 pdr1Δ pdr3Δ background), plasmid pRS316 with TDH3 promoter and CYC1 terminator
- PROTOCOL_SUMMARY: Growth inhibition of humanized yeast strain expressing SCD5 as sole desaturase
- Type: cell-based
- ASSAY_CONTEXT: humanized yeast strain expressing SCD5
pIC50: −log10 of the molar value.
Record form. Attribute: pIC50. Fill in for each entry.

Check SCD5 (Homo sapiens) data and give pIC50 for COc1cccc(C(=O)NCC(=O)N2CCC(c3nc(-c4ccc5c(C)nn(C)c5c4)no3)CC2)n1 [Compound 154] . < 4.35

Check SCD5 (Homo sapiens) data and give pIC50 for Cc1nn(C)c2cc(-c3noc(C4CCN(C(=O)C5CC(=O)N(c6cccc(C#N)c6)C5)CC4)n3)ccc12 (stereo not drawn) [Compound 168] . < 4.35

Check SCD5 (Homo sapiens) data and give pIC50 for CCOc1cnc(-c2noc(C3CCN(C(=O)C4CC(=O)N(c5ccccc5)C4)CC3)n2)cc1OC (stereo not drawn) [Compound 118] . 4.56

Check SCD5 (Homo sapiens) data and give pIC50 for CCOc1ccc(-c2noc(N3CCC(C(=O)N4CCO[C@H](c5ccccc5)C4)CC3)n2)cc1OC [Compound 218] . < 4.35

Check SCD5 (Homo sapiens) data and give pIC50 for COc1ccc(-c2csc(C3CCN(C(=O)CNC(=O)c4ccccc4)CC3)n2)cc1OC [Compound 38] . 4.39

Check SCD5 (Homo sapiens) data and give pIC50 for Cc1nn(C)c2cc(-c3nc(C4CCN(C(=O)OC(C)(C)C)CC4)no3)ccc12 [Compound 319] . < 4.35

Check SCD5 (Homo sapiens) data and give pIC50 for COc1ccc(-c2noc(C3CCN(C(=O)[C@H](C)NC(=O)c4ccccc4)CC3)n2)cc1OC (single isomer, unassigned) [Compound 59] . < 4.35

Check SCD5 (Homo sapiens) data and give pIC50 for COCC(=O)N1CCN(c2nc(-c3ccc4cnn(C(C)C)c4c3)no2)CC1 [Compound 595] . < 4.35

Check SCD5 (Homo sapiens) data and give pIC50 for CCn1nc(C)c2ccc(-c3noc(C4CCN(C(=O)CNC(=O)c5ccccc5)CC4)n3)cc21 [Compound 299] . < 4.35

Check SCD5 (Homo sapiens) data and give pIC50 for COc1ccc(-c2noc(CCNC(=O)COc3cc(O)c4c(c3)OC(C)(C)CC4=O)n2)cc1OC [Compound 486] . < 4.35

Check SCD5 (Homo sapiens) data and give pIC50 for Cc1nn(C)c2cc(-c3noc(N4CCN(C(=O)c5ccccc5)CC4)n3)ccc12 [Compound 261] . < 4.35

Check SCD5 (Homo sapiens) data and give pIC50 for CC(C)n1ncc2ccc(-c3noc(C4CCN(C(=O)c5ccc(Cl)cn5)CC4)n3)cc21 [Compound 586] . 5.42

Check SCD5 (Homo sapiens) data and give pIC50 for Cc1nn(C)c2cc(-c3nsc(C4CCN(C(=O)OC(C)(C)C)CC4)n3)ccc12 [Compound 503] . 6.50

Check SCD5 (Homo sapiens) data and give pIC50 for Cc1nn(C)c2cc(-c3noc(C4CCN(C(=O)C5CC(=O)N(c6ccccc6)C5)CC4)n3)cnc12 (stereo not drawn) [Compound 138] . < 4.35

Check SCD5 (Homo sapiens) data and give pIC50 for Cc1nn(C)c2cc(-c3noc(C4CCN(C(=O)CN5Cc6ccccc6C5=O)CC4)n3)ccc12 [Compound 165] . < 4.35

* * *

- STUDY_SYSTEM: SCD5 (Homo sapiens, UniProt Q86SK9)
- Construct: host or cells: S. cerevisiae ole1Δ strain (W303 pdr1Δ pdr3Δ background), plasmid pRS316 with TDH3 promoter and CYC1 terminator
- Sequence (Q86SK9 whole entry): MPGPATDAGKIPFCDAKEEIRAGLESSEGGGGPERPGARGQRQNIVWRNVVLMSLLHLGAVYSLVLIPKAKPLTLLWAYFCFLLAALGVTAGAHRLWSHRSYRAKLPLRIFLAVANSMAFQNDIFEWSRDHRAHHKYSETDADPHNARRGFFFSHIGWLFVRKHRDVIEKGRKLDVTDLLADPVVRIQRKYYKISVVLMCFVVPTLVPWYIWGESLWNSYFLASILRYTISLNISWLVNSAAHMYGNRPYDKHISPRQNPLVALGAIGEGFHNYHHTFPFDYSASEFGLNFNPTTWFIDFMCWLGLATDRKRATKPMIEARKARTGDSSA
- PROTOCOL_SUMMARY: Growth inhibition of humanized yeast strain expressing SCD5 as sole desaturase
- Assay type: cell-based
- ASSAY_CONTEXT: humanized yeast strain expressing SCD5
pIC50: −log10 of the molar value.
Record form. Attribute: pIC50. Fill in for each entry.

State, in one line, measured pIC50 of CCOc1ccc(-c2noc(C3CCN(C(=O)CNC(=O)c4ccccc4)CC3)n2)cc1C#N [compound 101] < 4.35

State, in one line, measured pIC50 of CCOc1ccc(-c2noc(C3CCN(C(=O)[C@@H]4CC(=O)N(c5ccccc5)C4)CC3)n2)cc1OC [compound 86] 4.48

State, in one line, measured pIC50 of Cc1noc2cc(-c3noc(C4CCN(C(=O)CC5(C)CC5)CC4)n3)ccc12 [Compound 591] < 4.35

State, in one line, measured pIC50 of CC(C)n1ncc2ccc(-c3noc(C4CCNCC4(F)F)n3)cc21 (centres unmarked) [Compound 508] < 4.35

State, in one line, measured pIC50 of CC(C)OC(=O)N1CCC(c2nc(-c3ccc4oc(=O)n(C(C)C)c4c3)no2)CC1 [Compound 507] 5.61

State, in one line, measured pIC50 of O=C(CNC(=O)c1ccccc1)NCCc1nc(-c2ccccc2)no1 [Compound 485] 4.52

State, in one line, measured pIC50 of Cc1nn(C)c2cc(-c3noc(N4CCN(C(=O)C5CC(=O)N(c6ccccc6)C5)CC4)n3)ccc12 (centres unmarked) [compound 96] < 4.35

State, in one line, measured pIC50 of COc1ccc(-c2noc(C3CCN(C(=O)C4CC(=O)N(c5ccc(C)c(C)c5)C4)CC3)n2)cc1OC (centres unmarked) [compound 19] < 4.35

* * *

- STUDY_SYSTEM: SCD5 (Homo sapiens)
- Construct: host or cells: S. cerevisiae ole1Δ strain (W303 pdr1Δ pdr3Δ background), plasmid pRS316 with TDH3 promoter and CYC1 terminator
- PROTOCOL_SUMMARY: Growth inhibition of humanized yeast strain expressing SCD5 as sole desaturase
- Type: cell-based
- ASSAY_CONTEXT: humanized yeast strain expressing SCD5
Lab note: anything with SCD5 % Max Inhibition at or over 60% counts as 1; the rest go in -1.

Identify whether the reported SCD5 % Max Inhibition of the following compound is 60% or greater: CCOc1ccc(-c2noc(C3CCN(C(=O)CN4Cc5ccccc5C4=O)CC3)n2)nc1OC [Compound 142] -1

Identify whether the reported SCD5 % Max Inhibition of the following compound is 60% or greater: CCOc1cnc(-c2noc(C3CCN(C(=O)CNC(=O)c4ccccc4)CC3)n2)cc1OC [Compound 121] 1

Identify whether the reported SCD5 % Max Inhibition of the following compound is 60% or greater: COc1ccc(-c2nsc(C3CCN(C(=O)CNC(=O)c4ccccc4)CC3)n2)cc1OC [Compound 35] 1

Identify whether the reported SCD5 % Max Inhibition of the following compound is 60% or greater: Cc1nn(C)c2cc(-c3noc(C4CCN(C(=O)NC(C)(C)C)CC4)n3)ccc12 [Compound 282] -1

Identify whether the reported SCD5 % Max Inhibition of the following compound is 60% or greater: COc1ccc(-c2noc(C3CCN(C(=O)c4cccc(C(C)C)c4)CC3)n2)cc1OC [Compound 167] -1

Identify whether the reported SCD5 % Max Inhibition of the following compound is 60% or greater: CC(C)c1ccc(C(=O)N2CCC(c3nc(C(=O)Nc4ccnn4C)no3)CC2)cc1 [Compound 287] 1

Identify whether the reported SCD5 % Max Inhibition of the following compound is 60% or greater: N#CCC1CN(c2noc(C3CCN(C(=O)C4CC(=O)N(c5ccccc5)C4)CC3)n2)C1 (stereo not shown) [Compound 242] 1

Identify whether the reported SCD5 % Max Inhibition of the following compound is 60% or greater: CCOC(=O)C(C)(C)n1cc2ccc(-c3noc(C4CCN(C(=O)CNC(=O)c5ccccc5)CC4)n3)cc2n1 [Compound 194] 1

Identify whether the reported SCD5 % Max Inhibition of the following compound is 60% or greater: Cc1cc(N2CC(C(=O)N3CCC(c4nc(-c5ccc6c(C)nn(C)c6c5)no4)CC3)CC2=O)ccn1 (stereo not shown) [Compound 183] 1

Identify whether the reported SCD5 % Max Inhibition of the following compound is 60% or greater: Cn1ncc2ccc(NC(=O)C3CCN(C(=O)C4CC(=O)N(c5ccccc5)C4)CC3)cc21 (stereo not shown) [Compound 213] 1

Identify whether the reported SCD5 % Max Inhibition of the following compound is 60% or greater: O=C(NCC(=O)N1CCC(c2nc(-c3cccc(F)c3)no2)CC1)c1ccccc1 [Compound 42] -1

Identify whether the reported SCD5 % Max Inhibition of the following compound is 60% or greater: Cc1nn(C)c2cc(-c3noc(C4CCN(S(=O)(=O)C(C)C)CC4)n3)ccc12 [Compound 279] -1

Identify whether the reported SCD5 % Max Inhibition of the following compound is 60% or greater: Cc1nn(C)c2cc(-c3noc(N4CCN(C(=O)[C@H]5CC(=O)N(c6ccccc6)C5)CC4)n3)cnc12 [Compound 246] 1

Identify whether the reported SCD5 % Max Inhibition of the following compound is 60% or greater: Cn1c(=O)[nH]c2ccc(-c3noc(C4CCN(C(=O)CN5Cc6ccccc6C5=O)CC4)n3)cc21 [Compound 133] 1

Identify whether the reported SCD5 % Max Inhibition of the following compound is 60% or greater: CCN1C(=O)COc2ccc(-c3nc(C4(c5ccccc5)CC4)no3)cc21 [Compound 159] -1
